assay.explanation: Plasma pharmacokinetics in CD-1 mice
Type: in vivo, mouse
reported.conditions: male, mouse, iv, i.v. 5 mg/kg, read-out: half-life (T1/2) (converted)
readout.name: half-life at 24 h (h)

In [3]: df
Out[3]:
                                   compound  u  meas_value
0  C[C@@H](Nc1c(-c2c(F)cc(C#CCCN(C)C)cc2F)c(Cl)nc2ncnn12)C(C)(C)C [Compound 60]  h         6.8

---

Tested on: acetylated α-tubulin (AcTub) levels in QBI293 cells
assay.explanation: QBI293 cell assay of MT stabilization: acetylated α-tubulin ELISA
Type: cell-based
reported.conditions: 4 h incubation, 1 μM
readout.name: AcTub 1 μM, fold-change compared to positive control compound 5 (100 nM) (in parentheses) (fold-change)

>>> df
                                   compound                             target_system            u  meas_value
0  CNCC#Cc1cc(F)c(-c2c(Cl)nc3ncnn3c2N[C@H](C)C(C)C)c(F)c1 [Compound 51]  acetylated α-tubulin (AcTub) levels in QBI293 cells  fold-change        0.27
1  C[C@H](Nc1c(-c2c(F)cc(C#CCCCO)cc2F)c(Cl)nc2ncnn12)C(F)(F)F [Compound 43]  acetylated α-tubulin (AcTub) levels in QBI293 cells  fold-change        2.29
2  CNCC#Cc1cc(F)c(-c2c(Cl)nc3ncnn3c2N[C@H](C)C(C)(C)C)c(F)c1 [Compound 59]  acetylated α-tubulin (AcTub) levels in QBI293 cells  fold-change        0.81
3  C[C@@H](Nc1c(-c2c(F)cc(C#CCN(C)C)cc2F)c(Cl)nc2ncnn12)C(C)(C)C [Compound 55]  acetylated α-tubulin (AcTub) levels in QBI293 cells  fold-change        0.45
4  C[C@H](Nc1c(-c2c(F)cc(OCCCCCO)cc2F)c(Cl)nc2ncnn12)C(F)(F)F [Compound 20]  acetylated α-tubulin (AcTub) levels in QBI293 cells  fold-change        0.50
5  Fc1cc(F)c(-c2c(Cl)nc3ncnn3c2NCC2CCC2)c(F)c1 [Compound 15]  acetylated α-tubulin (AcTub) levels in QBI293 cells  fold-change        0.22
6  CC1(CNc2c(-c3c(F)cc(F)cc3F)c(Cl)nc3ncnn23)CC1 [Compound 13]  acetylated α-tubulin (AcTub) levels in QBI293 cells  fold-change        0.26
7  C[C@@H](Nc1c(-c2c(F)cc(C#CCCCO)cc2F)c(Cl)nc2ncnn12)C(C)(C)C [Compound 54]  acetylated α-tubulin (AcTub) levels in QBI293 cells  fold-change        0.74

---

System: acetylated α-tubulin (AcTub) levels in QBI293 cells
assay.explanation: QBI293 cell assay of MT stabilization: acetylated α-tubulin ELISA
Format: cell-based
reported.conditions: 4 h incubation, 1 μM
Reported AcTub 1 μM, fold-change compared to positive control compound 5 (100 nM) (in parentheses) values for a set of compounds
readout.name: AcTub 1 μM, fold-change compared to positive control compound 5 (100 nM) (in parentheses) (fold-change)

>>> print(df.to_string())
                            compound_string  meas_value
0  CN(C)CCCOc1cc(F)c(-c2c(Cl)nc3ncnn3c2NCC2CCC2)c(F)c1        0.61
1  CN(C)CCCOc1cc(F)c(-c2c(Cl)nc3ncnn3c2NCC2(C)CC2)c(F)c1        0.53
2  C[C@@H](Nc1c(-c2c(F)cc(OCCCO)cc2F)c(Cl)nc2ncnn12)C(C)(C)C        1.01

---

Reported AcTub (1 uM - normalized) values for a set of compounds
System: acetylated α-tubulin (AcTub) levels in QBI293 cells
assay.explanation: QBI293 cell assay of MT stabilization: acetylated α-tubulin ELISA
Format: cell-based
reported.conditions: 1 uM compound, normalized
readout.name: AcTub (1 uM - normalized)

In [3]: df
Out[3]:
                            compound_string               readout_name  meas_value
0  C[C@@H](Nc1c(-c2c(F)cc(C#CCCN)cc2F)c(Cl)nc2ncnn12)C(C)(C)C  AcTub (1 uM - normalized)        0.83
1  C[C@H](Nc1c(-c2c(F)cc(OCCCO)cc2F)c(Cl)nc2ncnn12)C(F)(F)F  AcTub (1 uM - normalized)        1.24
2  C[C@H](Nc1c(-c2c(F)cc(C#CCCN(C)C)cc2F)c(Cl)nc2ncnn12)C(F)(F)F  AcTub (1 uM - normalized)        2.01
3  CN(C)CCCOc1cc(F)c(-c2c(Cl)nc3ncnn3c2NCC2(C)N=N2)c(F)c1  AcTub (1 uM - normalized)        0.81

---

System: acetylated α-tubulin (AcTub) levels in QBI293 cells
assay.explanation: QBI293 cell assay of MT stabilization: acetylated α-tubulin ELISA
Type: cell-based
reported.conditions: 1 uM compound, normalized
Decide using AcTub (1 uM - normalized) alone. Strictly below 0.6: true (1). Equal to or above 0.6: false (0).

>>> print(df.to_string())
                             compound_string      class
 0  CC(C)[C@@H](C)Nc1c(-c2c(F)cc(C#CCCCO)cc2F)c(Cl)nc2ncnn12   true (1)
 1  CN(C)CCCOc1cc(F)c(-c2c(Cl)nc3ncnn3c2NCC2(C(F)(F)F)CC2)c(F)c1  false (0)
 2  CNCC#Cc1cc(F)c(-c2c(Cl)nc3ncnn3c2N[C@H](C)C(C)(C)C)c(F)c1  false (0)
 3  Fc1cc(F)c(-c2c(Cl)nc3ncnn3c2NCC2(C(F)(F)F)CC2)c(F)c1   true (1)
 4  Fc1cc(F)c(-c2c(Cl)nc3ncnn3c2NCC2CCC2)c(F)c1   true (1)
 5  CC(C)(C)CNc1c(-c2c(F)cc(F)cc2F)c(Cl)nc2ncnn12   true (1)
 6  C[C@H](Nc1c(-c2c(F)cc(C#CCCCO)cc2F)c(Cl)nc2ncnn12)C(F)(F)F  false (0)
 7  CC(C)[C@@H](Nc1c(-c2c(F)cc(F)cc2F)c(Cl)nc2ncnn12)C(F)(F)F   true (1)
 8  C[C@@H](Nc1c(-c2c(F)cc(OCCCO)cc2F)c(Cl)nc2ncnn12)C(C)(C)C  false (0)
 9  CN(C)CCCOc1cc(F)c(-c2c(Cl)nc3ncnn3c2NCC(C)(C)C)c(F)c1  false (0)
10  C[C@@H](Nc1c(-c2c(F)cc(OCCCN(C)C)cc2F)c(Cl)nc2ncnn12)C1(C)N=N1  false (0)
11  CC1(CNc2c(-c3c(F)cc(F)cc3F)c(Cl)nc3ncnn23)N=N1   true (1)
12  C[C@H](Nc1c(-c2c(F)cc(C#CCCO)cc2F)c(Cl)nc2ncnn12)C(F)(F)F   true (1)
13  C[C@@H](Nc1c(-c2c(F)cc(C#CCCO)cc2F)c(Cl)nc2ncnn12)C(C)(C)C   true (1)
14  CNCC#Cc1cc(F)c(-c2c(Cl)nc3ncnn3c2N[C@H](C)C(C)C)c(F)c1   true (1)
15  C[C@@H](Nc1c(-c2c(F)cc(F)cc2F)c(Cl)nc2ncnn12)C1(C)N=N1   true (1)
16  CC(C)[C@@H](C)Nc1c(-c2c(F)cc(C#CCN(C)C)cc2F)c(Cl)nc2ncnn12   true (1)

---

System: acetylated α-tubulin (AcTub) levels in QBI293 cells
assay.explanation: QBI293 cell assay of MT stabilization: acetylated α-tubulin ELISA
Format: cell-based
reported.conditions: 4 h incubation, 1 μM
Reported AcTub 1 μM, fold-change compared to positive control compound 5 (100 nM) (in parentheses) values for a set of molecules
readout.name: AcTub 1 μM, fold-change compared to positive control compound 5 (100 nM) (in parentheses)

                             compound_string        meas_value
 0  CC(C)[C@@H](C)Nc1c(-c2c(F)cc(C#CCN(C)C)cc2F)c(Cl)nc2ncnn12  0.40 fold-change
 1  C[C@@H](Nc1c(-c2c(F)cc(C#CCCO)cc2F)c(Cl)nc2ncnn12)C(C)(C)C  0.57 fold-change
 2  Fc1cc(F)c(-c2c(Cl)nc3ncnn3c2NCC2(C(F)(F)F)CC2)c(F)c1  0.22 fold-change
 3  C[C@H](Nc1c(-c2c(F)cc(C#CCCO)cc2F)c(Cl)nc2ncnn12)C(F)(F)F  0.23 fold-change
 4  CC(C)[C@@H](C)Nc1c(-c2c(F)cc(C#CCCO)cc2F)c(Cl)nc2ncnn12  0.48 fold-change
 5  CN(C)CCCOc1cc(F)c(-c2c(Cl)nc3ncnn3c2NCC2(C(F)(F)F)CC2)c(F)c1  0.63 fold-change
 6  C[C@H](Nc1c(-c2c(F)cc(C#CCCN(C)C)cc2F)c(Cl)nc2ncnn12)C(F)(F)F  2.01 fold-change
 7  C#Cc1cc(F)c(-c2c(Cl)nc3ncnn3c2N[C@H](C)C(C)C)c(F)c1  0.39 fold-change
 8  CC(C)[C@@H](C)Nc1c(-c2c(F)cc(C#CCCCO)cc2F)c(Cl)nc2ncnn12  0.40 fold-change
 9  C[C@H](Nc1c(-c2c(F)cc(F)cc2F)c(Cl)nc2ncnn12)C1CC1  0.10 fold-change
10  C[C@H](Nc1c(-c2c(F)cc(OCCCCO)cc2F)c(Cl)nc2ncnn12)C(F)(F)F  0.59 fold-change
11  C[C@@H](Nc1c(-c2c(F)cc(C#CCCN)cc2F)c(Cl)nc2ncnn12)C(C)(C)C  0.83 fold-change
12  CC(C)[C@@H](C)Nc1c(-c2c(F)cc(C#CCCN(C)C)cc2F)c(Cl)nc2ncnn12  1.75 fold-change
13  C[C@@H](Nc1c(-c2c(F)cc(F)cc2F)c(Cl)nc2ncnn12)C1CC1  0.19 fold-change
14  C[C@@H](Nc1c(-c2c(F)cc(C#CCCN(C)C)cc2F)c(Cl)nc2ncnn12)C(C)(C)C  1.75 fold-change
15  CN(C)CCCOc1cc(F)c(-c2c(Cl)nc3ncnn3c2NCC(C)(C)C)c(F)c1  1.12 fold-change
